// provenance: patent US20150291692A1

Below is a list of entries, each paired with its recorded koff value.
Target: T1, KIR3DL2 recombinant protein (R&D Systems) (human, UniProt P43630 28-340)
T1 construct: Bought protein; also called rec KIR3DL2; recombinant KIR3DL2-Fc fusion protein; not shown: Fc part of the bought fusion protein; not described
T1 sequence (P43630 28-340 A108T): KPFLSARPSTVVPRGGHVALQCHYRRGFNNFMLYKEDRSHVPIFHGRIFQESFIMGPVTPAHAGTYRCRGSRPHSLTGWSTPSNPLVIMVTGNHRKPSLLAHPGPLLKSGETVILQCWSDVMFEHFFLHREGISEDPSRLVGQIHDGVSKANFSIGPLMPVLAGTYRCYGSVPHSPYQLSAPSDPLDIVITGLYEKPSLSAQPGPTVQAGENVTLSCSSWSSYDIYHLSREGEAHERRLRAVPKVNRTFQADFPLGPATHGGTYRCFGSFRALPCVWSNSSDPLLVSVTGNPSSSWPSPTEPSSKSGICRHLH
Test: SCK kinetic method
Please state the value followed by its unit.

GET /value?item= Hum33-K32-15C11 (antibody, V domains shown, also called H3/L3; H3-L3) VH: EVQLVESGGGLVQPGGSLRLSCAASGFTFSDAWMDWVRQAPGKGLEWVAEIRSKANNHATYYAASVKGRFTISRDDSKNSVYLQMNSLKTEDTAVYYCTGGYYPVYWGQGTLVTVSS VL: DIQMTQSPSSLSASVGDRVTITCKASQDINKNIAWYQHKPGKAPKLLIHYTSTLQPGVPSRFSGSGSGRDYTFTISSLQPEDIATYYCLQYDNLLTFGGGTKVEIK &field=koff returns 7.8e-05 s⁻¹

Okay, now this binder:
GET /value?item= Hum23-K32-15C11 (antibody, V domains shown, also called H2/L3) VH: EVQLVESGGGLVQPGGSLRLSCAASGFTFSDAWMDWVRQAPGKGLEWVGEIRSKANNHATYYAASVKGRFTISRDDSKNSLYLQMNSLKTEDTAVYYCTGGYYPVYWGQGTLVTVSS VL: DIQMTQSPSSLSASVGDRVTITCKASQDINKNIAWYQHKPGKAPKLLIHYTSTLQPGVPSRFSGSGSGRDYTFTISSLQPEDIATYYCLQYDNLLTFGGGTKVEIK &field=koff returns 0.00014 s⁻¹
